# targetOfAssay: D(4) dopamine receptor (Homo sapiens)
# assayRemarks: D4 efficacy was measured using recombinant human Dopamine receptor D4 expressed in HEK293 cells
# Type: cell-based
resultType: EC50 (nM)
Give the quantity in nM, number only.

## Task I would be grateful if you could share the reported EC50 for c1ccc(N2CCN(Cc3nc4ccccc4[nH]3)CC2)nc1 [ABT-724] .
## Result 12.4

---

# targetOfAssay: D(4) dopamine receptor (Homo sapiens, UniProt P21917)
# Sequence (P21917 whole entry): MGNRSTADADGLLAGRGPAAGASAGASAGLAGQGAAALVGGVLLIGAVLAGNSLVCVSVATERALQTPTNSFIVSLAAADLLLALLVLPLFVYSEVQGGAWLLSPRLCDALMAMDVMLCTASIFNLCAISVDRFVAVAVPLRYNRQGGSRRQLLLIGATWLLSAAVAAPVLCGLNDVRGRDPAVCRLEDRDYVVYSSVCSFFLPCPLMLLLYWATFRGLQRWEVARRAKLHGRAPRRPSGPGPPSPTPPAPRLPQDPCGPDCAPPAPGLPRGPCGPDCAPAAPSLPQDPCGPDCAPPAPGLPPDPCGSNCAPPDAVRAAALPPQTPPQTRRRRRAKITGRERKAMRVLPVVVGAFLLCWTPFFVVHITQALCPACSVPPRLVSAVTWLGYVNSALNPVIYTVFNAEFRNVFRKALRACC
Ki less than 20 nM is 1 (yes); Ki greater than or equal to 20 nM is 0 (no).

See these solved cases before continuing.
> print(dat)
                               smilesentry      cat
1    c1cncc(N2CCN(Cc3nc4ccccc4[nH]3)CC2)c1   0 (no)
2  Clc1ccc(N2CCN(Cc3nc4ccccc4[nH]3)CC2)cc1  1 (yes)

## Task Given the entry c1ccc2[nH]c(CN3CCN(c4ccncc4)CC3)nc2c1 , would its reported Ki be below 20 nM?
## Result 0 (no)

## Task Hi there! Is Ki for COc1ccccc1N1CCN(Cc2nc3ccccc3[nH]2)CC1 below 20 nM, do you know?
## Result 1 (yes)

## Task Find out if reported Ki for COc1cccc(N2CCN(Cc3nc4ccccc4[nH]3)CC2)c1 is less than 20 nM
## Result 0 (no)
